# system under test: TRPV4 (Homo sapiens)
# Construct: HaloTag fused to the N-terminus of human TRPV4, expressed in TRPV4-KO HEK293 cells
# Sequence (Q9HBA0 whole entry, the tested form may be a part): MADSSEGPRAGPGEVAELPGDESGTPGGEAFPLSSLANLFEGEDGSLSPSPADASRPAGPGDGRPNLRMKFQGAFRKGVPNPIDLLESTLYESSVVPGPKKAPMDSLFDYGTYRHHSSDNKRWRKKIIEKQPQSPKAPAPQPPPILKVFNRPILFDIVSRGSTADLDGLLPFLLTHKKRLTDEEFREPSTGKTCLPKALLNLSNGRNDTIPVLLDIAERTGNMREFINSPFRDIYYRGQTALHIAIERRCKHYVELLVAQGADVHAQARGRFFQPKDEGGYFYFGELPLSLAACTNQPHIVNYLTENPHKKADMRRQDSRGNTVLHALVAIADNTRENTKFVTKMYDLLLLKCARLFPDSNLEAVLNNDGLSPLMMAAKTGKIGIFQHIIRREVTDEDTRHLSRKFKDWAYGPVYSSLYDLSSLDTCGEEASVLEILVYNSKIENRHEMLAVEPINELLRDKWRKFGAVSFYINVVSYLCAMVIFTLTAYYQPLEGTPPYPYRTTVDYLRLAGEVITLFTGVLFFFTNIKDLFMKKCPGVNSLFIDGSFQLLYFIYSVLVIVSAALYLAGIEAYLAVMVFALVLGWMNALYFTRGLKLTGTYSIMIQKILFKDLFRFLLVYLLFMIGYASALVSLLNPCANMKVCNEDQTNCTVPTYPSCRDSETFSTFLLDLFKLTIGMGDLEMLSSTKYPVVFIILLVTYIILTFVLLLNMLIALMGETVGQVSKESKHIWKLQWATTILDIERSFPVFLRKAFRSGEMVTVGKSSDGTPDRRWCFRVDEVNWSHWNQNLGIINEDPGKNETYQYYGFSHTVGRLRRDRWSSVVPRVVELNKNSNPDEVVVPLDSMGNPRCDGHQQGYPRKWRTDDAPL
# assay info: FLIPR calcium mobilization assay in transfected TRPV4-KO HEK293 cells (agonist dose-response)
result type: EC50
Remember to quote the unit after the number.

Tell me the measured EC50 of CC(C)C[C@H](NC(=O)c1cc2ccccc2s1)C(=O)N1CCN(C(=O)[C@H](CO)NS(=O)(=O)c2ccc(Cl)cc2Cl)CC1 [GSK1016790A] , please.
26 nM
